Biological target: T1, hu-M-IL1RAP construct, positions S21-T367 (extracellular domain of the membrane form of human IL1RAP) (human, UniProt Q9NPH3 21-367)
T1 construct: Biotinylated when captured on the Biacore chip
T1 sequence: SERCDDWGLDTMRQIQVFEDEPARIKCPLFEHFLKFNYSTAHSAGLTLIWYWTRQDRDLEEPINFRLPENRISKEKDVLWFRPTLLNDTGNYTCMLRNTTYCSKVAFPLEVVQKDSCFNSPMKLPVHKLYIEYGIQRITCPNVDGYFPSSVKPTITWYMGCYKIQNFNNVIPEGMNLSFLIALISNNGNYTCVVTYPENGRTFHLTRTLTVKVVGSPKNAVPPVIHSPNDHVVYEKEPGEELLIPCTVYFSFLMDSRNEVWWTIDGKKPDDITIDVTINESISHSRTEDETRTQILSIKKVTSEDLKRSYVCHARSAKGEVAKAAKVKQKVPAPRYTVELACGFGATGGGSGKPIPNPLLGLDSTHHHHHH
Test: SPR, Fab analyte, 37 C
The reader will find reported koff values listed item by item below.
Entry rule: numbers only, all in s⁻¹.

binder	measure-unit	koff
K13/H2 Fab (VL-A51Y/W92I, VH-R96D) (Fab, V domains shown, Fab with 8xHis tag) VH: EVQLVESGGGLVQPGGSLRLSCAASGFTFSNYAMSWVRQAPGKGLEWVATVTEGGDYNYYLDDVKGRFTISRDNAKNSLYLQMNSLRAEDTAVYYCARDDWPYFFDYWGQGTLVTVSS VL: DIQMTQSPSSLSASVGDRVTITCRASENIYSNLAWYQQKPGKSPKLLVYGYKNLADGVPSRFSGSGSGTDYTLTISSLQPEDFATYYCQHFITTPRTFGGGTKVEIK	s⁻¹	0.000115
K13/H3 Fab (VL-A51Y/W92I, VH-V51S) (Fab, V domains shown, Fab with 8xHis tag) VH: EVQLVESGGGLVQPGGSLRLSCAASGFTFSNYAMSWVRQAPGKGLEWVATSTEGGDYNYYLDDVKGRFTISRDNAKNSLYLQMNSLRAEDTAVYYCARDRWPYFFDYWGQGTLVTVSS VL: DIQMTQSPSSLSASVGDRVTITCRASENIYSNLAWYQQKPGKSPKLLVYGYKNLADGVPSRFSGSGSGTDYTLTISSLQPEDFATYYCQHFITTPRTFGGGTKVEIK	s⁻¹	0.000109
K17/H2 Fab (VL-A51Y/W92K, VH-R96D) (Fab, V domains shown, Fab with 8xHis tag) VH: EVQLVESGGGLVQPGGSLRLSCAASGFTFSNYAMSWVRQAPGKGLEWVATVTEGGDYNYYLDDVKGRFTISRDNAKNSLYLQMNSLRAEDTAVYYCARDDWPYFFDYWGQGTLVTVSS VL: DIQMTQSPSSLSASVGDRVTITCRASENIYSNLAWYQQKPGKSPKLLVYGYKNLADGVPSRFSGSGSGTDYTLTISSLQPEDFATYYCQHFKTTPRTFGGGTKVEIK	s⁻¹	0.000121
K10/H3 Fab (VL-A51Y, VH-V51S) (Fab, V domains shown, Fab with 8xHis tag) VH: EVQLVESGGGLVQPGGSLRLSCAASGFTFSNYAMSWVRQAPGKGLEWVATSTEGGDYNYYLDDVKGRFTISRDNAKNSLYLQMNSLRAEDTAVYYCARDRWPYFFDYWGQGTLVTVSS VL: DIQMTQSPSSLSASVGDRVTITCRASENIYSNLAWYQQKPGKSPKLLVYGYKNLADGVPSRFSGSGSGTDYTLTISSLQPEDFATYYCQHFWTTPRTFGGGTKVEIK	s⁻¹	0.000123
K17/H3 Fab (VL-A51Y/W92K, VH-V51S) (Fab, V domains shown, Fab with 8xHis tag) VH: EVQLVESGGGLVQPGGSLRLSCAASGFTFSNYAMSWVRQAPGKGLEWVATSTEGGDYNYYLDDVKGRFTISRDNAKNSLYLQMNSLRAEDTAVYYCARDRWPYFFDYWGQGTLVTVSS VL: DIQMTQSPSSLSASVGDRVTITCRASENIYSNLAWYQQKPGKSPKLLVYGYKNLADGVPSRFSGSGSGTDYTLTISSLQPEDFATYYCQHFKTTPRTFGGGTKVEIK	s⁻¹	0.00012

Sure, the documented koff for K10/H2 Fab (VL-A51Y, VH-R96D) (Fab, V domains shown, Fab with 8xHis tag) VH: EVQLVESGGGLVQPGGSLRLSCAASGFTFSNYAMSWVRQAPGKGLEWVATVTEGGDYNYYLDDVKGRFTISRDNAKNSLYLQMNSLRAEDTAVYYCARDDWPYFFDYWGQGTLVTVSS VL: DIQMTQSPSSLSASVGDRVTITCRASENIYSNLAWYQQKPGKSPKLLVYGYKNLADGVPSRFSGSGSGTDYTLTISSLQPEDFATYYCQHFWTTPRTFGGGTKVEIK is 0.000111

Sure, the documented koff for K13/H12 Fab (VL-A51Y/W92I, VH-M34V) (Fab, V domains shown, Fab with 8xHis tag) VH: EVQLVESGGGLVQPGGSLRLSCAASGFTFSNYAVSWVRQAPGKGLEWVATVTEGGDYNYYLDDVKGRFTISRDNAKNSLYLQMNSLRAEDTAVYYCARDRWPYFFDYWGQGTLVTVSS VL: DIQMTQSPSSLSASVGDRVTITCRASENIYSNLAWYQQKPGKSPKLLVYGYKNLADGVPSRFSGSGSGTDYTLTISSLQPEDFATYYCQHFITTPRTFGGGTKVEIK is 0.000178
